Numbers sourced from ChEMBL document CHEMBL3872241.

Assay: Cytotoxicity against human HCT116 cells assessed as cell growth inhibition after 48 hrs by MTT assay
Type: functional, cell-based
Settings: HCT-116, 48 h
Listed below: IC50 values for each entry.
assay.metric: IC50

[[record]]
smiles_text = "COc1cc(OC)cc(/C(C#N)=C/c2cccc(Br)c2)c1"
assay_metric = "IC50"
result = "> 100 µM"

[[record]]
smiles_text = "COc1cc(OC)cc(/C(C#N)=C/c2cc(OC)c(OC)c(OC)c2)c1"
assay_metric = "IC50"
result = "> 100 µM"

[[record]]
smiles_text = "CC(=O)O[C@H]1C(=O)[C@@]2(C)[C@H]([C@H](OC(=O)c3ccccc3)[C@]3(O)C[C@H](OC(=O)[C@H](O)[C@@H](NC(=O)c4ccccc4)c4ccccc4)C(C)=C1C3(C)C)[C@]1(OC(C)=O)CO[C@@H]1C[C@@H]2O"
assay_metric = "IC50"
result = "< 0.1 µM"

[[record]]
smiles_text = "COc1cc(OC)cc(/C(C#N)=C/c2cccc(C(F)(F)F)c2)c1"
assay_metric = "IC50"
result = "> 100 µM"


----------
Test: Cytotoxicity against human L02 cells assessed as cell growth inhibition after 48 hrs by MTT assay
Assay type: toxicity, cell-based
assay.metric: IC50 at 48 h

[[record]]
smiles_text = "CCCOc1ccccc1/C=C(\\C#N)c1cc(OC)cc(OC)c1"
result = "> 100 µM"

[[record]]
smiles_text = "COc1cc(OC)cc(/C(C#N)=C/c2ccc(Br)cc2)c1"
result = "> 100 µM"

[[record]]
smiles_text = "CCCOc1ccc(/C=C(\\C#N)c2cc(OC)cc(OC)c2)cc1"
result = "> 100 µM"

[[record]]
smiles_text = "COc1cc(OC)cc(/C(C#N)=C/c2c(C)cc(C)cc2C)c1"
result = "> 100 µM"

[[record]]
smiles_text = "CC(=O)O[C@H]1C(=O)[C@@]2(C)[C@H]([C@H](OC(=O)c3ccccc3)[C@]3(O)C[C@H](OC(=O)[C@H](O)[C@@H](NC(=O)c4ccccc4)c4ccccc4)C(C)=C1C3(C)C)[C@]1(OC(C)=O)CO[C@@H]1C[C@@H]2O"
result = "> 100 µM"

[[record]]
smiles_text = "CCOc1ccc(/C=C(\\C#N)c2cc(OC)cc(OC)c2)cc1"
result = "> 100 µM"

[[record]]
smiles_text = "COc1cc(OC)cc(/C(C#N)=C/c2cccc(F)c2)c1"
result = "96 µM"

[[record]]
smiles_text = "COc1cc(OC)cc(/C(C#N)=C/c2ccc(C(F)(F)F)cc2)c1"
result = "> 100 µM"

[[record]]
smiles_text = "COc1cc(OC)cc(/C(C#N)=C/c2cccc3ccccc23)c1"
result = "73.6 µM"

[[record]]
smiles_text = "CCc1ccc(/C=C(\\C#N)c2cc(OC)cc(OC)c2)cc1"
result = "> 100 µM"

[[record]]
smiles_text = "COc1cc(OC)cc(/C(C#N)=C/c2ccccc2Cl)c1"
result = "> 100 µM"

[[record]]
smiles_text = "COc1cc(OC)cc(/C(C#N)=C/c2ccc(N(C)C)cc2)c1"
result = "> 100 µM"


----------
Experiment: Cytotoxicity against human HCT116 cells assessed as cell growth inhibition after 48 hrs by MTT assay
Type: functional, cell-based
Settings: HCT-116, 48 h
Documented IC50 across a set of molecules
assay.metric: IC50

[[record]]
smiles_text = "COc1cc(OC)cc(/C(C#N)=C/c2ccc(OCC(C)C)cc2)c1"
assay_metric = "IC50"
result = "> 100 µM"

[[record]]
smiles_text = "COc1cc(OC)cc(/C(C#N)=C/c2ccccn2)c1"
assay_metric = "IC50"
result = "5.15 µM"

[[record]]
smiles_text = "CCc1ccc(/C=C(\\C#N)c2cc(OC)cc(OC)c2)cc1"
assay_metric = "IC50"
result = "1.3 µM"

[[record]]
smiles_text = "COc1cc(OC)cc(/C(C#N)=C/c2ccc(C)cc2)c1"
assay_metric = "IC50"
result = "2 µM"

[[record]]
smiles_text = "COc1cc(OC)cc(/C(C#N)=C/c2ccccc2Br)c1"
assay_metric = "IC50"
result = "8.44 µM"

[[record]]
smiles_text = "COc1cc(OC)cc(/C(C#N)=C/c2ccc(Cl)cc2)c1"
assay_metric = "IC50"
result = "43.3 µM"

[[record]]
smiles_text = "COc1cc(OC)cc(/C(C#N)=C/c2ccc(Br)cc2)c1"
assay_metric = "IC50"
result = "11.4 µM"

[[record]]
smiles_text = "CCCOc1ccccc1/C=C(\\C#N)c1cc(OC)cc(OC)c1"
assay_metric = "IC50"
result = "> 100 µM"

[[record]]
smiles_text = "COc1cc(OC)cc(/C(C#N)=C/c2cccc3ccccc23)c1"
assay_metric = "IC50"
result = "20.4 µM"


----------
Tested on: Bel-7402
Test: Selectivity index, ratio of IC50 for human L02 cells to IC50 for human Bel7402 cells
Assay type: functional
assay.metric: Ratio IC50

[[record]]
smiles_text = "COc1cc(OC)cc(/C(C#N)=C/c2ccccn2)c1"
result = 0.94

[[record]]
smiles_text = "CCOc1ccc(/C=C(\\C#N)c2cc(OC)cc(OC)c2)cc1"
result = ">151.52"

[[record]]
smiles_text = "COc1cc(OC)cc(/C(C#N)=C/c2ccc(Cl)cc2)c1"
result = ">12.43"

[[record]]
smiles_text = "COc1cc(OC)cc(/C(C#N)=C/c2ccc(C(F)(F)F)cc2)c1"
result = ">3.62"

[[record]]
smiles_text = "COc1cc(OC)cc(/C(C#N)=C/c2ccccc2F)c1"
result = ">1.38"

[[record]]
smiles_text = "CCCOc1ccc(/C=C(\\C#N)c2cc(OC)cc(OC)c2)cc1"
result = ">2.38"

[[record]]
smiles_text = "COc1cc(OC)cc(/C(C#N)=C/c2ccc(N(C)C)cc2)c1"
result = ">57.47"

[[record]]
smiles_text = "CCc1ccc(/C=C(\\C#N)c2cc(OC)cc(OC)c2)cc1"
result = ">285.71"

[[record]]
smiles_text = "COc1cc(OC)cc(/C(C#N)=C/c2ccccc2Cl)c1"
result = ">3.51"

[[record]]
smiles_text = "COc1cc(OC)cc(/C(C#N)=C/c2ccco2)c1"
result = ">1.32"

[[record]]
smiles_text = "COc1cc(OC)cc(/C(C#N)=C/c2cccc(F)c2)c1"
result = ">1.63"


----------
Experiment: Cytotoxicity against human Bel7402 cells assessed as cell growth inhibition at 100 uM after 48 hrs by MTT assay
Assay type: functional
Conditions: Bel-7402, 48 h, read-out: GI
assay.metric: inhibition of growth at 100 µM (%)

[[record]]
smiles_text = "COc1cc(OC)cc(/C(C#N)=C/c2cccc(C(F)(F)F)c2)c1"
recorded_number = 20

[[record]]
smiles_text = "CCOc1cccc(/C=C(\\C#N)c2cc(OC)cc(OC)c2)c1"
recorded_number = 5.1

[[record]]
smiles_text = "COc1cc(OC)cc(/C(C#N)=C/c2ccc(F)cc2)c1"
recorded_number = 9.3

[[record]]
smiles_text = "COc1cc(OC)cc(/C(C#N)=C/c2ccc(Br)cc2)c1"
recorded_number = 31.6

[[record]]
smiles_text = "COc1cc(OC)cc(/C(C#N)=C/c2cccc(Br)c2)c1"
recorded_number = 19.8

[[record]]
smiles_text = "COc1cccc(/C=C(\\C#N)c2cc(OC)cc(OC)c2)c1"
recorded_number = 12.4

[[record]]
smiles_text = "COc1cc(OC)cc(/C(C#N)=C/c2c(F)cccc2Cl)c1"
recorded_number = 11.1

[[record]]
smiles_text = "COc1cc(OC)cc(/C(C#N)=C/c2ccc(OCC(C)C)cc2)c1"
recorded_number = 7.6

[[record]]
smiles_text = "COc1cc(OC)cc(/C(C#N)=C/c2cc(OC)c(OC)c(OC)c2)c1"
recorded_number = 22.3


----------
# IC50 per entry
Assay: Cytotoxicity against human Bel7402 cells assessed as cell growth inhibition after 48 hrs by MTT assay
Format: functional, cell-based
Settings: Bel-7402, 48 h
assay.metric: IC50 (µM)

[[record]]
smiles_text = "CCCOc1ccccc1/C=C(\\C#N)c1cc(OC)cc(OC)c1"
assay_metric = "IC50"
prefix_operator = ">"
recorded_number = 100

[[record]]
smiles_text = "COc1cc(OC)cc(/C(C#N)=C/c2cccs2)c1"
assay_metric = "IC50"
prefix_operator = "="
recorded_number = 36.7

[[record]]
smiles_text = "COc1cc(OC)cc(/C(C#N)=C/c2ccccc2)c1"
assay_metric = "IC50"
prefix_operator = ">"
recorded_number = 100

[[record]]
smiles_text = "COc1cc(OC)cc(/C(C#N)=C/c2ccc(N(C)C)cc2)c1"
assay_metric = "IC50"
prefix_operator = "="
recorded_number = 1.74

